# System: Lactobacillus bifidus
# Method: Effect on the intestinal bacterial colonies: Lactobacillus bifidus in feces
# Format: in vivo
# Condition info: mice, oral 500 mg/kg/day for two consecutive days, feces one day after administration
Result type: Logarithmic value of the number of bacterial cells per one g of feces, L. bifidus
Answer using only a numeral; do not append any unit.

compound COC(=O)CNC(=O)c1ccc(NC(=O)C2=C(COC(C)=O)CSC3C(NC(=O)Cc4cccs4)C(=O)N23)cc1 (stereo not shown) , Logarithmic value of the number of bacterial cells per one g of feces, L. bifidus observed: 8.6

Just so you know, measured Logarithmic value of the number of bacterial cells per one g of feces, L. bifidus for CC(=O)OCC1=C(C(=O)Nc2ccc(O)cc2)N2C(=O)C(NC(=O)Cc3cccs3)C2SC1 (stereo not shown) came out at 8.2

GET /value?item= COC(=O)c1ccccc1NC(=O)C1=C(COC(C)=O)CSC2C(NC(=O)Cc3cccs3)C(=O)N12 (stereo not shown) &field=Logarithmic value of the number of bacterial cells per one g of feces, L. bifidus returns 8.2

Entry under test: CC(=O)OCC1=C(C(=O)O)N2C(=O)[C@@H](NC(=O)Cc3cccs3)[C@H]2SC1 [Cephalotin, cephalotin, reference compound] . Its Logarithmic value of the number of bacterial cells per one g of feces, L. bifidus was 9.2
